- Study System: T1, TNFR1 (Homo sapiens, UniProt P19438)
- T1 chain: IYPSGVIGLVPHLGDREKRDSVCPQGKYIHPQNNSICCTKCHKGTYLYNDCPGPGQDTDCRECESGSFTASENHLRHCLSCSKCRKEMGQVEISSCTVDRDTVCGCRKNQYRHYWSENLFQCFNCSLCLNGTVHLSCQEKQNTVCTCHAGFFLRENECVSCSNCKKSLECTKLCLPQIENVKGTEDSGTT
- Assay Method Text: yeast display SC50
# key: entry, value: apparent Kd (screen)
A complete answer gives the number followed by the unit.

Worked cases, answers included:
[
  {
    "Binder": "K64S (designed binder) SMEEEVEKAAKEYEKKKKEAIEKHLEKLKAKDKEAAERFLKELEEAAKEYAKDEAKTMSEEEASRRAKKYKEKVLLSELSEEEQKEIKEAEEKLVRTILKYVEEAAK",
    "Assay Metric": "apparent Kd (screen)",
    "Result": "718 pM"
  },
  {
    "Binder": "K100M (designed binder) SMEEEVEKAAKEYEKKKKEAIEKHLEKLKAKDKEAAERFLKELEEAAKEYAKDEAKTMSEEEAKRRAKKYKEKVLLSELSEEEQKEIKEAEEKLVRTILMYVEEAAK",
    "Assay Metric": "apparent Kd (screen)",
    "Result": "1050 pM"
  },
  {
    "Binder": "S80R (designed binder) SMEEEVEKAAKEYEKKKKEAIEKHLEKLKAKDKEAAERFLKELEEAAKEYAKDEAKTMSEEEAKRRAKKYKEKVLLSELREEEQKEIKEAEEKLVRTILKYVEEAAK",
    "Assay Metric": "apparent Kd (screen)",
    "Result": "593 pM"
  }
]

API: the following record is the query input.
Data request: Can you look up the measured apparent Kd (screen) of D32H (designed binder) SMEEEVEKAAKEYEKKKKEAIEKHLEKLKAKHKEAAERFLKELEEAAKEYAKDEAKTMSEEEAKRRAKKYKEKVLLSELSEEEQKEIKEAEEKLVRTILKYVEEAAK for me?
Data returned: 718 pM
